# Tested on: genetisch hypertonen Ratten
# protocol: Antihypertensive effect (systolic blood pressure, tail cuff) in spontaneously hypertensive rats after oral dosing
# Type: in vivo, Ratte
# assayContext: Rattus norvegicus, 10 µmol/kg p.o. once daily on four consecutive days, 2h after dosing, mean of days 1+4, male SHR/N/Ibm/Bm rats, N=6, read-out: BP (% Änderung vs. Kontrolle), Mittelwert für Meßzeitpunkte: Stunden nach Gabe (Tage) 2h (1.+4.Tag)
Collected change in vivo at 10 µmol/kg values appear next to each entry.
propertyLabel: change in vivo at 10 µmol/kg (%)

{"compound": "CC1=C(C(=O)OCCCN2CCN(c3ccc4c(c3)OCO4)CC2)C(c2cccc([N+](=O)[O-])c2)C(C(=O)O[C@@H]2C[C@H](C)CC[C@H]2C(C)C)=C(C)N1 (single isomer, unassigned)", "result": -21}
{"compound": "CC1=C(C(=O)OCCN2CCN(c3ccccn3)CC2)C(c2cccc([N+](=O)[O-])c2)C(C(=O)O[C@@H]2C[C@H](C)CC[C@H]2C(C)C)=C(C)N1 (single isomer, unassigned) [Beispiel 5b]", "result": -20}
{"compound": "COc1cccc(N2CCN(CCCOC(=O)C3=C(C)NC(C)=C(C(=O)O[C@@H]4C[C@H](C)CC[C@H]4C(C)C)C3c3cccc([N+](=O)[O-])c3)CC2)c1 (single isomer, unassigned)", "result": -14}
{"compound": "CCOc1ccccc1N1CCN(CCCOC(=O)C2=C(C)NC(C)=C(C(=O)O[C@@H]3C[C@H](C)CC[C@H]3C(C)C)C2c2cccc([N+](=O)[O-])c2)CC1 (single isomer, unassigned)", "result": -21}
{"compound": "COc1ccccc1N1CCN(CCOC(=O)C2=C(C)NC(C)=C(C(=O)O[C@@H]3C[C@H](C)CC[C@H]3C(C)C)C2c2cccc([N+](=O)[O-])c2)CC1 (single isomer, unassigned)", "result": -22}

###

# Tested on: genetisch hypertonen Ratten
# protocol: Antihypertensive effect (systolic blood pressure, tail cuff) in spontaneously hypertensive rats after oral dosing
# Assay type: in vivo, Ratte
# assayContext: Rattus norvegicus, 10 µmol/kg p.o. once daily on four consecutive days, 2h after dosing, mean of days 1+4, male SHR/N/Ibm/Bm rats, N=6, read-out: BP (% Änderung vs. Kontrolle), Mittelwert für Meßzeitpunkte: Stunden nach Gabe (Tage) 2h (1.+4.Tag)

{"molecule": "CC1=C(C(=O)OCCN2CCN(c3ccccn3)CC2)C(c2cccc([N+](=O)[O-])c2)C(C(=O)O[C@@H]2C[C@H](C)CC[C@H]2C(C)C)=C(C)N1 (some centres unmarked) [Beispiel 5a]", "change in vivo at 10 µmol/kg [%]": -29}
{"molecule": "CC1=C(C(=O)OCCCN2CCC(C(=O)c3ccc(F)cc3)CC2)C(c2cccc([N+](=O)[O-])c2)C(C(=O)O[C@@H]2C[C@H](C)CC[C@H]2C(C)C)=C(C)N1 (single isomer, unassigned) [Beispiel 7]", "change in vivo at 10 µmol/kg [%]": -12}
{"molecule": "CC1=C(C(=O)OCCCN2CCN(c3ccc(C)cc3C)CC2)C(c2cccc([N+](=O)[O-])c2)C(C(=O)O[C@@H]2C[C@H](C)CC[C@H]2C(C)C)=C(C)N1 (single isomer, unassigned) [Beispiel 18]", "change in vivo at 10 µmol/kg [%]": -15}
{"molecule": "CC1=C(C(=O)OCCCN2CCN(c3ccccc3C)CC2)C(c2cccc([N+](=O)[O-])c2)C(C(=O)O[C@@H]2C[C@H](C)CC[C@H]2C(C)C)=C(C)N1 (single isomer, unassigned) [Beispiel 17]", "change in vivo at 10 µmol/kg [%]": -17}
{"molecule": "CC1=C(C(=O)OCCCN2CCN(c3ccccn3)CC2)C(c2cccc([N+](=O)[O-])c2)C(C(=O)O[C@@H]2C[C@H](C)CC[C@H]2C(C)C)=C(C)N1 (single isomer, unassigned) [Beispiel 12]", "change in vivo at 10 µmol/kg [%]": -17}
